These measurements were taken from PubChem BioAssay (NCI).

System: KM12 colon
Assay: NCI-60 one-dose screen, 48 h
Settings: 10 µM unless noted
This is part of a sample that, as a whole, favours compounds with a hit. Of some 83,000 tested, about 20% had one in any assay. Active and inactive are the calls of the source. How the source made its calls: active means growth percent below 10; inactive means the rest.
Outcome codes: Y for active, N for inactive

[[record]]
compound = "CCc1ccccc1-n1c(-c2ccc(Cl)cc2)cc(-c2ccc(OC)cc2)c(C#N)c1=O"
study_system = "KM12 colon"
class_name = "N"

[[record]]
compound = "C=CC(=O)Nc1cccc(Oc2nccc(Nc3nnc(C4CC4)s3)n2)c1"
study_system = "KM12 colon"
class_name = "N"

[[record]]
compound = "COc1cc(-c2n/c(=C\\c3c(O)[nH]c4ccc(Cl)cc34)cc3c2=Nc2ccccc2-3)cc(OC)c1OC"
study_system = "KM12 colon"
class_name = "Y"

[[record]]
compound = "O=C(Nc1ccc(-n2cc(-c3ccncc3)c(-c3ccc(Cl)c(O)c3)n2)cc1)N1CCOCC1"
study_system = "KM12 colon"
class_name = "N"

[[record]]
compound = "N#C/C(=C\\c1ccc(-c2ccccc2F)o1)c1nc(-c2ccco2)cs1"
study_system = "KM12 colon"
class_name = "N"

[[record]]
compound = "CNC(=O)NCC1OC(n2cnc3c(NC(=O)Nc4ccccc4)ncnc32)C(O[Si](C)(C)C(C)(C)C)C1CC(=O)N(C)OC (stereo not drawn)"
study_system = "KM12 colon"
class_name = "N"

[[record]]
compound = "Fc1ccc(CNc2c3ccccc3nc3ccccc23)cc1F"
study_system = "KM12 colon"
class_name = "N"

[[record]]
compound = "O=C(CCc1nnc(CN(c2ccccc2)c2ccccc2)o1)c1nc2ccccc2[nH]1"
study_system = "KM12 colon"
class_name = "N"

[[record]]
compound = "Cc1ccc(S(=O)(=O)n2cc(CNc3ccc(N4CCOCC4=O)cc3)c3ccccc32)cc1"
study_system = "KM12 colon"
class_name = "N"

[[record]]
compound = "COc1ccc(C(=O)COc2ccc(/C=C3\\Oc4ccccc4C3=O)cc2)cc1"
study_system = "KM12 colon"
class_name = "N"

[[record]]
compound = "Cc1c(C)c2c(c(C)c1OCC(=O)O)CC[C@@](C)(CCC[C@@H](C)CCC[C@@H](C)CCCC(C)C)O2"
study_system = "KM12 colon"
class_name = "Y"

[[record]]
compound = "COc1ccc(-c2[nH]c(=S)n(C(CC3(C)NCC(=O)N3n3c(-c4ccccc4)cc(C)nc3=S)c3ccc(OC)cc3)c(=O)c2Br)cc1 (stereo not drawn)"
study_system = "KM12 colon"
class_name = "N"

[[record]]
compound = "COc1ccc(C(=O)Nn2c(NCC(=O)N3c4ccccc4Sc4ccccc43)nnc2-c2ccc(O)cc2)cc1"
study_system = "KM12 colon"
class_name = "N"


* * *

Test system: RXF 393 renal
Assay: NCI-60 one-dose screen, 48 h (100 = growth as untreated, 0 = no growth, -100 = all killed)
Conditions: 10 µM unless noted
About 83,000 compounds went through this panel and 20% of them were active in at least one assay; those are over-represented in the sample as a whole.
property: growth (%)

[[record]]
molecule_smiles = "Nc1cc2c3c(cccc3c1)C(=O)N(CCN1CCCC1)C2=O"
unit_of_measurement = "%"
measured_number = 48.2

[[record]]
molecule_smiles = "CCc1ccccc1NC(=O)/C(C#N)=C/c1ccc(OC)cc1"
unit_of_measurement = "%"
measured_number = 126

[[record]]
molecule_smiles = "C=CCNc1nc(NN2C(=O)c3cccc4cccc(c34)C2=O)nc(-n2cnc3ccccc32)n1"
unit_of_measurement = "%"
measured_number = 50.3


* * *

Tested on: MDA-MB-435 melanoma
Assay: NCI-60 one-dose screen, 48 h (100 = growth as untreated, 0 = no growth, -100 = all killed)
Conditions: 10 µM unless noted
Compounds without any hit were thinned out: in the full panel of roughly 83,000, 20% have a hit.
Listed next: entries and their corresponding growth.
property: growth (%)

[[record]]
compound = "Cc1cc(=O)oc2c1ccc1oc(C#N)c(C)c12"
study_system = "MDA-MB-435 melanoma"
property = "growth"
measured_number = 95.5

[[record]]
compound = "N#Cc1c(-c2cccc(Cl)c2)cc(-c2cccc(Cl)c2)[nH]c1=O"
study_system = "MDA-MB-435 melanoma"
property = "growth"
measured_number = 0.951

[[record]]
compound = "COc1cccc(Nc2nccc(Nc3ccc4[nH]ncc4c3)n2)c1"
study_system = "MDA-MB-435 melanoma"
property = "growth"
measured_number = -78.4

[[record]]
compound = "CCN1C(=O)N(CC)C2Nn3c(s/c(=C\\c4ccc(Cl)cc4Cl)c3=O)=NC21 (stereo unspecified)"
study_system = "MDA-MB-435 melanoma"
property = "growth"
measured_number = -40.7

[[record]]
compound = "COC(=O)c1c2c(c[n+]([O-])c1C)C(=O)C=CC2=O"
study_system = "MDA-MB-435 melanoma"
property = "growth"
measured_number = -81.8

[[record]]
compound = "NC1=NCc2nc3ccccc3c(=O)n2C1"
study_system = "MDA-MB-435 melanoma"
property = "growth"
measured_number = 100


* * *

Tested on: MCF7 breast
Assay: NCI-60 one-dose screen, 48 h
Conditions: 10 µM unless noted
Method: Growth inhibition of the MCF7 human tumor cell line is measured as a screen for anti-cancer activity. Cells are grown in 96 well plates and exposed to the test compound for 48 hours. Compounds are tested at a single concentration, which is 10^-5 M for most compounds. The reported endpoint is percent growth (GI% or GIPRCNT), where numbers from 0 - 100% represent growth inhibition, and numbers from -100% - 0 represent cell death. For example, a value of 40 represents 60% growth inhibition. […]
About 83,000 compounds went through this panel and 20% of them were active in at least one assay; those are over-represented in the sample as a whole. Calls of active or inactive are those of the source. The calls were made as follows: active = growth percent below 10; inactive = the rest.
Outcomes: yes (active), no (inactive)

[[record]]
molecule = "CCc1ccccc1NC(=O)/C(C#N)=C/c1ccc(OC)cc1"
class_name = "no"

[[record]]
molecule = "CCN(CC)Cc1cccc(C(=O)OC)c1"
class_name = "no"

[[record]]
molecule = "N#CC1=C(/N=C/c2ccccc2)Oc2c(ccc3ccccc23)C1c1ccccc1 (configuration not stated)"
class_name = "no"

[[record]]
molecule = "COc1nc2c(c(=O)n1C)CN(c1ccccc1)C(=O)CN2C"
class_name = "no"

[[record]]
molecule = "O=C(Cc1ccc(F)c(F)c1)Nc1cc(C2(C(F)(F)F)CC2)nn1Cc1ccccc1"
class_name = "yes"

[[record]]
molecule = "COc1ccc(Nc2nnc(SCc3ccccc3F)s2)cc1"
class_name = "no"

[[record]]
molecule = "c1ccc2c(c1)nc(CN1CCOCC1)n1cc(N3CCCC3)nc21"
class_name = "no"


* * *

System: HCT-116 colon
Experiment: NCI-60 one-dose screen, 48 h
Details: 10 µM unless noted
Compounds without any hit were thinned out: in the full panel of roughly 83,000, 20% have a hit. Calls of active or inactive are those of the source. Rule for the calls: active = growth percent below 10; inactive = the rest.
Labels: active, inactive

[[record]]
compound = "COc1ccc(/C=N\\NC(=O)c2cc(-c3ccc(Br)cc3)n(-c3ccc(S(N)(=O)=O)cc3)n2)cc1"
study_system = "HCT-116 colon"
class_name = "inactive"

[[record]]
compound = "CC1CC2Oc3ccc(Cl)cc3C(=O)N2O1 (stereo not drawn)"
study_system = "HCT-116 colon"
class_name = "inactive"

[[record]]
compound = "Cc1nn(-c2ccccc2)c(Oc2ccc(Cl)cc2)c1/C=N\\N=c1/sc2ccccc2n1C"
study_system = "HCT-116 colon"
class_name = "inactive"

[[record]]
compound = "NS(=O)(=O)c1cnccc1Oc1cccc2cccnc12"
study_system = "HCT-116 colon"
class_name = "inactive"

[[record]]
compound = "O=C(NCCc1ccc(O)c(O)c1)C12CC3CC(CC(C3)C1)C2"
study_system = "HCT-116 colon"
class_name = "inactive"

[[record]]
compound = "CCCCCCCOc1c(OC)cc(C2CC(=O)Nc3c2c(C)nn3-c2nc3ccccc3[nH]2)cc1OC (stereo not drawn)"
study_system = "HCT-116 colon"
class_name = "active"

[[record]]
compound = "CCc1ccccc1-n1c(N)c(C#N)c(-c2ccc(N(C)C)cc2)c(C#N)c1=O"
study_system = "HCT-116 colon"
class_name = "inactive"

[[record]]
compound = "O=C(CCCCCCN1CC(=O)N2[C@@H](c3ccccc3Cl)c3[nH]c4ccccc4c3C[C@H]2C1=O)NO"
study_system = "HCT-116 colon"
class_name = "inactive"


* * *

Test system: BT-549 breast
Assay: NCI-60 one-dose screen, 48 h (100 = growth as untreated, 0 = no growth, -100 = all killed)
Conditions: 10 µM unless noted
About 83,000 compounds went through this panel and 20% of them were active in at least one assay; those are over-represented in the sample as a whole. The source made the active and inactive calls. The calls were made as follows: active = growth percent below 10; inactive = the rest.
property: growth

[[record]]
compound = "Cc1c(C)c2c(c(C)c1OCC(=O)O)CC[C@@](C)(CCC[C@@H](C)CCC[C@@H](C)CCCC(C)C)O2"
result = "-4.37% [50 µM] (active)"

[[record]]
compound = "O=C(CCc1nnc(CN(c2ccccc2)c2ccccc2)o1)c1nc2ccccc2[nH]1"
result = "84.8% (inactive)"

[[record]]
compound = "COc1cc(/C=N/NC(=O)Cn2c(C(C)C)nc3ccccc32)ccc1O"
result = "100% (inactive)"

[[record]]
compound = "O=C(Nc1cccc(Cl)c1)c1cc(N=Nc2ccc([N+](=O)[O-])cc2Cl)ccc1O"
result = "81% (inactive)"

[[record]]
compound = "O=c1[nH]ccc2nc(N3CCC(O)CC3)nc(Nc3ccc(N4CCOCC4)cc3)c12"
result = "29.7% (inactive)"

[[record]]
compound = "O=C1CCc2c(sc3[nH]c(=S)n(-c4ccc(OC(F)(F)F)cc4)c(=O)c23)C1"
result = "38% (inactive)"

[[record]]
compound = "CCCCCCCC/C=C\\CCCCCCCCOc1ccccc1CC(=O)NCC[N+](C)(C)C"
result = "77.4% (inactive)"

[[record]]
compound = "C=C1C(=O)O[C@H]2[C@H]1CC/C(COC(=O)C(=O)c1c[nH]c3ccc(OC)cc13)=C\\CC[C@@]1(C)O[C@@H]21"
result = "-63.7% (active)"

[[record]]
compound = "CC1SC(c2ccc(OCc3ccccc3)cc2)N(NC(=O)C(O)(c2ccccc2)c2ccccc2)C1=O (centres undefined)"
result = "92.9% (inactive)"

[[record]]
compound = "Cc1cc(N2CCCC2)nc(NCc2cc(Nc3ccnc4cc(Cl)ccc34)ccc2F)n1"
result = "55.2% (inactive)"

[[record]]
compound = "O=c1c2c3c(sc2n2c(-c4cc(-c5ccccc5)nn4-c4ccccc4)nnc2n1Cc1ccccc1)CCCC3"
result = "97.4% (inactive)"

[[record]]
compound = "CC1(C)OC2C(CO[Si](C)(C)C(C)(C)C)OC(n3c(I)c(C#C[Si](C)(C)C)c(=O)[nH]c3=O)C2O1 (centres undefined)"
result = "118% (inactive)"

[[record]]
compound = "Cc1ccc(-c2cc(-c3cccnc3)[nH]c(=O)c2C#N)cc1"
result = "111% (inactive)"

[[record]]
compound = "Cc1ccc(NS(=O)(=O)c2ccc3c(c2)C2OCCC2C(c2ccc(C(=O)C(C)C)cc2)N3)cc1C (centres undefined)"
result = "54.3% (inactive)"

[[record]]
compound = "N#Cc1c(-c2ccccn2)[nH]c(=S)[nH]c1=O"
result = "102% (inactive)"

[[record]]
compound = "CCOC(CN=Cc1cc(C)c2[nH]c3ccccc3c2c1C)OCC"
result = "83.2% (inactive)"

[[record]]
compound = "Cc1cc(/C=C\\c2ccc3ccccc3[n+]2C)c(O)c2ncccc12"
result = "-19.4% (active)"

[[record]]
compound = "CCN(CC)CCCNc1ccc(Nc2ccc(OC)cc2)cc1"
result = "59% (inactive)"

[[record]]
compound = "N#CCN1C(=O)C2C3=C(CCCC3)SC2N=C1CN1CCCC1 (centres undefined)"
result = "114% (inactive)"

[[record]]
compound = "Cc1ccc(Cl)cc1NC(=O)c1cc2ccccc2cc1O"
result = "-15.6% (active)"

[[record]]
compound = "COC(=O)[C@]12CC[C@@H](C)[C@H](C)[C@@H]1C1=CC[C@@H]3[C@@]4(C)C(C=O)=C[C@@](C)(COC(C)=O)C4=CC[C@@]3(C)[C@]1(C)CC2"
result = "-16% (active)"

[[record]]
compound = "CCOP(=O)(OCC)C1CP(=O)(c2ccccc2)CC(C)=C1Cl (centres undefined)"
result = "129% (inactive)"

[[record]]
compound = "Cc1cc(=O)oc2c1ccc1oc(C#N)c(C)c12"
result = "94% (inactive)"

[[record]]
compound = "Cc1ccc(-c2c(-c3ccccc3)c(=O)oc3ccc(C)cc23)cc1"
result = "108% (inactive)"

